system: HCT116; assay: cell viability (CellTiter-Glo) relative to plate median (fraction of plate median); higher = more viable cells; conditions: 5 µM; treatment time 24 h; reporter: TCF4/Wnt
Measured cell viability, listed per entry for reference.
The reply should be a number, written without any unit.

Examples from the recorded data:
1. CC1=C(/C=C/C(C)=C/C=C/C(C)=C/C=C/C=C(C)/C=C/C=C(C)/C=C/C2=C(C)CCCC2(C)C)C(C)(C)CCC1 [beta-CAROTENE] | 1
2. CCC1(c2ccccc2)C(=O)NCNC1=O | 0.994
3. CN(C)CCC=C1c2ccccc2CCc2ccccc21 | 0.997
4. CC(=O)Oc1cc2c(c(C)c1OC(C)=O)CC=C1[C@@]2(C)CC[C@@]2(C)C3C[C@](C)(C(=O)O)CC[C@]3(C)CC[C@]12C (some centres not stated) | 0.958
5. C=CC(C1=CC(=O)C=CC1=O)c1ccccc1 (configuration not stated) | 0.884
6. CO[C@@]1(NC(=O)CSCC#N)C(=O)N2C(C(=O)O)=C(CSc3nnnn3C)CS[C@@H]21 | 1.11
7. Nc1ccc(S(N)(=O)=O)cc1 | 0.975
8. CC(=O)Oc1c(-c2ccccc2)oc2c(CC=C(C)C)c3c(c(OC(C)=O)c2c1=O)C=CC(C)(C)O3 | 1.11

Entry C[C@]12C=CC(=O)C=C1CC[C@@H]1[C@@H]2C(=O)C[C@@]2(C)[C@H]1CC[C@]2(O)C(=O)CO has what cell viability?
1.12

Entry Cc1cccc(CN2CCN(C(c3ccccc3)c3ccc(Cl)cc3)CC2)c1 (configuration not stated) has what cell viability?
1.05

Entry COc1cc2oc3cc(OC)c(OC)c(CC=C(C)C)c3c(=O)c2c(OC)c1CC=C(C)C has what cell viability?
1.08

Entry C[C@]12CCC(=O)C=C1CC[C@@H]1[C@@H]2C(=O)C[C@@]2(C)[C@H]1CC[C@]2(O)C(=O)CO has what cell viability?
1.02

Entry C[N+](C)(C)C[C@H](O)CC(=O)[O-] has what cell viability?
0.976

Entry CC(=O)OCC(=O)[C@@]1(O)[C@H](OC(C)=O)C[C@H]2[C@@H]3CCC4=CC(=O)C=C[C@]4(C)[C@@]3(F)[C@@H](O)C[C@@]21C has what cell viability?
1.09

Entry Cn1c(=O)c2c(ncn2CC(O)CO)n(C)c1=O (configuration not stated) has what cell viability?
0.996

Entry Nc1nnc(-c2cccc(Cl)c2Cl)c(N)n1 has what cell viability?
1.04

Entry CCc1cn([C@H]2C[C@H](O)[C@@H](CO)O2)c(=O)[nH]c1=O has what cell viability?
0.968
